- System: T1, human CD30 (commercial, conjugated to digoxigenin) (human, UniProt P28908 19-379, limits assumed, conjugated to digoxigenin (DIG))
- T1 sequence (looked up): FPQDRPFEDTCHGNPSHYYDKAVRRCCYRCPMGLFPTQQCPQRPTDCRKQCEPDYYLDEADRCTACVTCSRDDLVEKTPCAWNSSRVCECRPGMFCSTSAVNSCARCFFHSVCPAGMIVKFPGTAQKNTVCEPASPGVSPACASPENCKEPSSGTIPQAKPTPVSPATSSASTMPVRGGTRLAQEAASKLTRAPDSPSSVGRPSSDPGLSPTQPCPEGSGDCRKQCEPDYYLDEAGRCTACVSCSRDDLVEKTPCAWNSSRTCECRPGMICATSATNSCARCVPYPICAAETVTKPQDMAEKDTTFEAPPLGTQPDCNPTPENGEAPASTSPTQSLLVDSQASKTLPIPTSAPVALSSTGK
- Assay Comment: AlphaScreen competition vs biotin-WT AC10
Measure Name: Fold IC50 vs WT (fold)
One number for each entry, in fold.

The examples below pair each entry with its known result.
{"Binder": "AC10 H0/L2 full length antibody (antibody, V domains shown) VH: QIQLQQSGPEVVKPGASVKISCKASGYTFTDYYITWVKQKPGQGLEWIGWIYPGSGNTKYNEKFKGKATLTVDTSSSTAFMQLSSLTSEDTAVYFCANYGNYWFAYWGQGTQVTVSA VL: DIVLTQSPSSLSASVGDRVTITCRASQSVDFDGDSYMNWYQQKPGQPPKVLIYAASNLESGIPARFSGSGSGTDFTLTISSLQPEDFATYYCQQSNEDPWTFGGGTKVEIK", "Fold IC50 vs WT, fold": 0.41}
{"Binder": "AC10 H0/L1 full length antibody (antibody, V domains shown) VH: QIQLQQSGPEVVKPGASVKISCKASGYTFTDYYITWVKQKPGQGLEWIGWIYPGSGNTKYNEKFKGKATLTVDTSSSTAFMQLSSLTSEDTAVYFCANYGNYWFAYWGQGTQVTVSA VL: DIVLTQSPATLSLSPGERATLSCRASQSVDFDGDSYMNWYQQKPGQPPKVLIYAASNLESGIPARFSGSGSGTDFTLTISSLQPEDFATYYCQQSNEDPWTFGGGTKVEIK", "Fold IC50 vs WT, fold": 0.61}

Proceeding to the next binder to report its Fold IC50 vs WT.
// lookup Fold IC50 vs WT for AC10 H1/L2 full length antibody (antibody, V domains shown) VH: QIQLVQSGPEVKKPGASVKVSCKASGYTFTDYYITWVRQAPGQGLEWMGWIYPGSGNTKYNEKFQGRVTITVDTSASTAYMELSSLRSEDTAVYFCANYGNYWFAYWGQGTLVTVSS VL: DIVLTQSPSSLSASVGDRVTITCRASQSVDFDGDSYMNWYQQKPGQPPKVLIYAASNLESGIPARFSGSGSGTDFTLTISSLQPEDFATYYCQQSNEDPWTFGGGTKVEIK
0.07
